# RUN DESCRIPTION: Preclinical pharmacokinetic study in rats
# Assay type: in vivo, Sprague-Dawley (SD) rats
# DETAILS: Sprague-Dawley, rat; male SD rats, oral gavage (p.o.) 10 mg/kg, plasma
A collection of compounds and their measured AUC(0-t)
Give the value in ng·h/mL but do not write ng·h/mL after it.

COMPOUND	AUC(0-t), ng·h/mL
CCN1CCCn2c1nc1c(F)cc(-c3nc(N[C@@H]4CCOC[C@H]4O)ncc3Cl)cc12 [TB-109]	1770

// below: AUC(0-t) requested for another compound
Query (compound): C[C@H]1CCN(CC(F)(F)F)c2nc3c(F)cc(-c4nc(N[C@@H]5CCOC[C@H]5O)ncc4Cl)cc3n21 [TA-29] ; field requested: AUC(0-t)
1490
